- assay_overview: Elimination half life in Sprague-Dawley rat at 1 mg/kg, iv by LC-MS/MS analysis
- Type: ADME, organism-based
- assay_conditions: in vivo, read-out: beta t1/2 (converted)
experimental_readout: half-life (h)
The response must be a number in h with no trailing unit.

Using the record for Cc1nc(C)c([C@H](OC(C)(C)C)C(=O)O)c(N2CCC(C)(C)CC2)c1-c1ccc(OCCc2ccc(F)cc2)cc1 , report its half-life.
4.3

###

- assay_overview: Stability in human liver microsome assessed as half life
- Assay type: ADME
- assay_conditions: liver microsomes
experimental_readout: half-life (min)
Response body: numeric value in min, unit text excluded.

Sample Cc1nc(C)c([C@H](OC(C)(C)C)C(=O)O)c(N2CCC(C)(C)CC2)c1-c1ccc(OC2COCC2c2ccc(F)cc2)cc1 (stereo in doubt; 40b) — what was its half-life?
47

###

- assay_overview: Displacement of [3H](S)-2-(tert-butoxy)-2-(2-methyl-4-(p-tolyl)quinolin-3-yl)acetic acid from LEDGF-binding site of recombinant T124/T125 polymorphic HIV1 integrase by LIDIA assay
- Set-up: species or system Human immunodeficiency virus 1
experimental_readout: log10 IC50 (log10 of the value in nM)
Values are log10 of IC50 in nM.

Fill blank: measured log10 IC50 of the compound Cc1nc(C)c([C@H](OC(C)(C)C)C(=O)O)c(N2CCC(C)(C)CC2)c1-c1ccc(OCCCc2ccc(F)cc2)cc1 is ____.
1.55

Same thing, different compound: Cc1nc(C)c([C@H](OC(C)(C)C)C(=O)O)c(N2CCC(C)(C)CC2)c1-c1ccc(OCCc2cccnc2)cc1
1.29

What do we get for CCc1cccc(CC)c1-c1cc(-c2ccc3c4c(ccnc24)CCO3)c(C(OC(C)(C)C)C(=O)O)c(C)n1 (racemic) ?
5.00

Repeat for the following compound: Cc1nc(C)c([C@H](OC(C)(C)C)C(=O)O)c(N2CCC(C)(C)CC2)c1-c1ccc(CCCc2ccc(F)cc2)cc1
1.87

Likewise for Cc1nc(C)c([C@H](OC(C)(C)C)C(=O)O)c(N2CCC(C)(C)CC2)c1-c1ccc(OCCc2ccc(C#N)cc2)cc1 ?
1.12

Now try Cc1nc(C)c([C@H](OC(C)(C)C)C(=O)O)c(N2CCC(C)(C)CC2)c1-c1ccc(SCCc2ccc(F)cc2)cc1 .
1.99

And Cc1nc(C)c([C@H](OC(C)(C)C)C(=O)O)c(N2CCC(C)(C)CC2)c1-c1ccc(OC2CCCC2c2ccc(F)cc2)cc1 (stereo in doubt; 39b) ?
1.25

Would you mind doing Cc1nc(C)c([C@H](OC(C)(C)C)C(=O)O)c(N2CCC(C)(C)CC2)c1-c1ccc(OC2CCCC2c2ccc(F)cc2)cc1 (stereo in doubt; 39a) as well?
1.55

Another compound: COc1cccc(CCOc2ccc(-c3c(C)nc(C)c([C@H](OC(C)(C)C)C(=O)O)c3N3CCC(C)(C)CC3)cc2)c1
1.20

Field entry: Cc1cc(CCOc2ccc(-c3c(C)nc(C)c([C@H](OC(C)(C)C)C(=O)O)c3N3CCC(C)(C)CC3)cc2)ccc1F
1.32

Then what about the compound Cc1nc(C)c([C@H](OC(C)(C)C)C(=O)O)c(N2CCC(C)(C)CC2)c1-c1ccc(OCCc2ccccc2)cc1 ?
0.97

Could you do the same for Cc1nc(C)c([C@H](OC(C)(C)C)C(=O)O)c(N2CCC(C)(C)CC2)c1-c1ccc(OCc2ccccc2)cc1 , please?
1.48

Quick one: Cc1nc(C)c([C@H](OC(C)(C)C)C(=O)O)c(N2CCC(C)(C)CC2)c1-c1ccc(OCCc2cc(F)ccc2F)cc1
1.17

Request: Cc1nc(C)c([C@H](OC(C)(C)C)C(=O)O)c(N2CCC(C)(C)CC2)c1-c1ccc(OC2COCC2c2ccc(F)cc2)cc1 (stereo in doubt; 40a)
0.69
